Reference source for all entries: ChEMBL document CHEMBL1131076

- Species on record: Oryctolagus cuniculus
- assay name: Compound was evaluated for the prokinetic activity by measuring smooth muscle contractility from rabbit duodenum isolated tissue.
- Assay type: functional
For each record, write down the corresponding pED50.

Entry CC[C@H]1OC(=O)[C@H](C)[C@@H](OC2C[C@@](C)(OC)C[C@H](C)O2)[C@H](C)[C@@H](OC2O[C@H](C)C[C@H](N(C)CC)[C@H]2O)[C@@]2(C)CC(C)=C(O2)[C@H](C)[C@@H](O)[C@H]1C (some centres undefined) has what pED50? 7.22

Would you kindly repeat that for CC[C@H]1OC(=O)[C@H](C)[C@@H](OC2C[C@@](C)(OC)C[C@H](C)O2)[C@H](C)[C@@H](OC2O[C@H](C)C[C@H](NC)[C@H]2O)[C@@]2(C)C[C@H](C)[C@H](O2)[C@H](C)[C@@H](O)[C@]1(C)O (some centres undefined) ? 7.64

What do you get for CC[C@H]1OC(=O)[C@H](C)[C@@H](OC2C[C@@](C)(OC)C[C@H](C)O2)[C@H](C)[C@@H](OC2O[C@H](C)C[C@H](N(C)CCF)[C@H]2O)[C@@]2(C)C[C@H](C)[C@H](O2)[C@H](C)[C@@H](O)[C@]1(C)O (some centres undefined) ? 6.67

Same question for CC[C@H]1OC(=O)[C@H](C)[C@@H](OC2C[C@@](C)(OC)C[C@H](C)O2)[C@H](C)[C@@H](OC2O[C@H](C)C[C@H](N(C)C(C)C)[C@H]2O)[C@@]2(C)C[C@H](C)[C@H](O2)[C@H](C)[C@@H](O)[C@]1(C)O (some centres undefined) please. 7.75

* * *

- Species on record: Oryctolagus cuniculus
- assay name: Compound was evaluated for the prokinetic activity by measuring smooth muscle contractility from rabbit duodenum isolated tissue.
- Assay type: functional
Exercise: state measured pED50 for each of the compounds provided.
// return a plain number; no unit text

What does the data say about its pED50? Entry: CC[C@H]1OC(=O)[C@H](C)[C@@H](OC2C[C@@](C)(OC)C[C@H](C)O2)[C@H](C)[C@@H](OC2O[C@H](C)C[C@H](N(C)C)[C@H]2O)[C@@]2(C)C[C@@H](C)[C@H](O2)[C@H](C)[C@@H](O)[C@]1(C)O (stereo partly drawn) 7.8

Entry CC[C@H]1OC(=O)[C@H](C)[C@@H](OC2C[C@@](C)(OC)C[C@H](C)O2)[C@H](C)[C@@H](OC2O[C@H](C)C[C@H](N(C)CCO)[C@H]2O)[C@@]2(C)C[C@H](C)[C@H](O2)[C@H](C)[C@@H](O)[C@]1(C)O (stereo partly drawn) please 8.11

Next: CC[C@H]1OC(=O)[C@H](C)[C@@H](OC2C[C@@](C)(OC)C[C@H](C)O2)[C@H](C)[C@@H](OC2O[C@H](C)C[C@H](N(C)C)[C@H]2O)[C@@]2(C)C[C@H](C)[C@H](O2)[C@H](C)[C@@H](O)[C@]1(C)O (stereo partly drawn) 7.93
